For each record, write down the corresponding CC50 at 4 days.
Experiment: Compound cytotoxicity, XTT-based colorimetric assay
Type: cell-based
Details: human, uninfected MT2 cells, Table 1a, day 4, XTT
Where a name gives a salt, the structure may show the parent alone.

Field CC50 at 4 days (entry Cn1nc(NS(C)(=O)=O)c2c(Cl)ccc(-n3c([C@H](Cc4cc(F)cc(F)c4)NC(=O)Cc4c[nH]c5ccc(O)cc45)nc4cc(CS(C)(=O)=O)ccc4c3=O)c21 ) reads > 1000 nM

Data point: COc1ccc2c(=O)n(-c3ccc(Cl)c4c(NS(C)(=O)=O)nn(CC(F)F)c34)c([C@H](Cc3cc(F)cc(F)c3)NC(=O)Cn3ccc(C4CC4)n3)nc2n1 (atropisomer, axis not shown) ; CC50 at 4 days = > 1000 nM

The reported value for Cn1nc(NS(C)(=O)=O)c2c(Cl)ccc(-n3c([C@H](Cc4cc(F)cc(F)c4)NC(=O)Cn4ccc(C5CC5)n4)nc4cc(C(F)(F)F)ccc4c3=O)c21 (single isomer, unassigned) in terms of CC50 at 4 days is > 1000 nM

The reported value for CN(C)S(=O)(=O)c1ccc(-n2c([C@H](Cc3cc(F)cc(F)c3)NC(=O)Cn3nc(C(F)F)c4c3C(F)(F)[C@@H]3C[C@H]43)nc3ncccc3c2=O)cc1 in terms of CC50 at 4 days is > 10000 nM

Reported CC50 at 4 days ( O=C(Cc1c[nH]c2ccc(O)cc12)N[C@@H](Cc1cc(F)cc(F)c1)c1nc2ccccc2c(=O)n1-c1ccc(S(=O)(=O)N2CCOCC2)cc1 ) = > 10000 nM

Measured CC50 at 4 days of CCOc1ccc2c(=O)n(-c3ccc(Cl)c4c(NS(C)(=O)=O)nn(C)c34)c(C(Cc3cc(F)cc(F)c3)NC(=O)Cn3nc(C(F)F)c4c3C(F)(F)[C@@H]3C[C@H]43)nc2n1 (mixture of isomers) : > 1000 nM

// sample O=C(Cn1nc(C(F)F)c2c1C(F)(F)[C@@H]1C[C@H]21)N[C@@H](Cc1cc(F)cc(F)c1)c1nc2ncccc2c(=O)n1-c1ccc2ncsc2c1 , its CC50 at 4 days was > 1000 nM

# CC50 at 4 days of O=C(Cn1nc(C(F)F)c2c1C(F)(F)[C@@H]1C[C@H]21)N[C@@H](Cc1cc(F)cc(F)c1)c1nc2ncccc2c(=O)n1-c1ccc(Cl)c2c(NS(=O)(=O)C3CC3)nn(CC(F)F)c12 (mixture of isomers) = > 1000 nM

# CC50 at 4 days (compound: CC(C)(c1ccc2c(=O)n(-c3ccc(Cl)c4c(NS(=O)(=O)C5CC5)nn(CC(F)F)c34)c([C@H](Cc3cc(F)cc(F)c3)NC(=O)Cn3nc(C(F)F)c4c3C(F)(F)[C@@H]3C[C@H]43)nc2c1)S(C)(=O)=O [Example 214, TFA] ) is > 1000 nM

###

Test system: uninfected MT2 cells
Test: Compound cytotoxicity, XTT-based colorimetric assay
Type: cell-based
Conditions: Table 1, day 4, XTT
ASSAY_METRIC: CC50

Known value: uninfected MT2 cells CC50 of the compound Cn1nc(NS(C)(=O)=O)c2c(Cl)ccc(-c3cc4scnc4nc3C(Cc3cc(F)cc(F)c3)NC(=O)Cn3nc(C(F)F)c4c3C(F)(F)[C@@H]3C[C@H]43)c21 (single isomer, unassigned) [Example 1.5] equals > 10 µM

// compound Cn1nc(NS(C)(=O)=O)c2c(Cl)ccc(-c3cc4scnc4nc3C(Cc3cc(F)cc(F)c3)NC(=O)Cn3nc(C(F)F)c4c3C(F)(F)[C@@H]3C[C@H]43)c21 (single isomer, unassigned) [Example 1.3] , assay uninfected MT2 cells, CC50 value: > 10 µM

Bench note, uninfected MT2 cells: O=C(Cc1c[nH]c2ccc(F)cc12)NC(Cc1cc(F)cc(F)c1)c1nc2cn[nH]c2cc1-c1ccc2scnc2c1 (single isomer, unassigned) , CC50 reads 32.6 µM

###

Assay: Compound cytotoxicity, XTT-based colorimetric assay
Assay type: cell-based
Settings: human, uninfected MT2 cells, Table 1a, day 4, XTT
Would you kindly list CC50 at 4 days for each of these compounds?

What the record says about Cn1nc(NS(C)(=O)=O)c2c(Cl)ccc(-c3cc4[nH]cc(Cl)c4nc3[C@H](Cc3cc(F)cc(F)c3)NC(=O)Cn3nc(C(F)F)c4c3C(F)(F)[C@@H]3C[C@H]43)c21 (single isomer, unassigned) [Example 89] : CC50 at 4 days is > 10 µM

Sure, the documented CC50 at 4 days for Cn1nc(NS(C)(=O)=O)c2c(Cl)ccc(-n3c([C@H](Cc4cc(F)cc(F)c4)NC(=O)Cn4nc(C(F)F)c5c4C(F)(F)[C@@H]4C[C@H]54)nc4ccc(F)c(Cl)c4c3=O)c21 (mixture of isomers) [Example 159] is > 1 µM

Noted for Cc1ccc2c(=O)n(-c3ccc(Cl)c4c(NS(C)(=O)=O)nn(C)c34)c(C(Cc3cc(F)cc(F)c3)NC(=O)Cn3nc(C(F)F)c4c3C(F)(F)[C@@H]3C[C@H]43)nc2n1 (mixture of isomers) [Example 41.1] : its CC50 at 4 days reads > 10 µM

So for Cn1nc(NS(C)(=O)=O)c2c(Cl)ccc(-n3c([C@H](Cc4cc(F)cc(F)c4)NC(=O)Cn4ccc(C5CC5)n4)nc4cc(F)cc(F)c4c3=O)c21 (single isomer, unassigned) [Example 131] , the logged CC50 at 4 days turned out to be > 1 µM

Summary for this compound, COc1ccc2c(=O)n(-c3ccc(Cl)c4c(NS(C)(=O)=O)nn(C)c34)c([C@H](Cc3cc(F)cc(F)c3)NC(=O)Cn3nc(C(F)F)c4c3C(F)(F)[C@@H]3C[C@H]43)nc2c1F (single isomer, unassigned) [Example 76] : CC50 at 4 days is > 1 µM

The reported CC50 at 4 days of the compound Cn1nc(NS(C)(=O)=O)c2c(Cl)ccc(-c3cc4cc[nH]c4nc3[C@H](Cc3cc(F)cc(F)c3)NC(=O)Cn3nc(C(F)F)c4c3C(F)(F)[C@@H]3C[C@H]43)c21 (single isomer, unassigned) [Example 84] was > 10 µM

Input N#Cc1cnc2nc([C@H](Cc3cc(F)cc(F)c3)NC(=O)Cn3nc(C(F)F)c4c3C(F)(F)[C@@H]3C[C@H]43)n(-c3ccc(C4CC4)cc3)c(=O)c2c1 [Example 39] . Output CC50 at 4 days: 2 µM

// CC50 at 4 days value for Cn1nc(NS(C)(=O)=O)c2c(Cl)ccc(-n3c([C@H](Cc4cc(F)cc(F)c4)NC(=O)Cn4nc(C(F)F)c5c4C(F)(F)[C@@H]4C[C@H]54)nc4cc(CS(C)(=O)=O)ccc4c3=O)c21 (mixture of isomers) [Example 201] : > 1 µM

Form field CC50 at 4 days, entry Cc1cc(C)c2c(=O)n(-c3ccc(Cl)c4c(NS(C)(=O)=O)nn(C)c34)c([C@H](Cc3cc(F)cc(F)c3)NC(=O)Cn3nc(C(F)F)c4c3C(F)(F)[C@@H]3C[C@H]43)nc2n1 [Example 42.2] : > 10 µM

According to the records, this compound Cn1nc(NS(C)(=O)=O)c2c(Cl)ccc(-c3cc4[nH]cc(Cl)c4nc3C(Cc3cc(F)cc(F)c3)NC(=O)Cn3nc(C(F)F)c4c3C(F)(F)[C@@H]3C[C@H]43)c21 (stereo partly drawn) [Example 88] displays CC50 at 4 days of > 10 µM

Given item Cn1ccc2nc([C@H](Cc3cc(F)cc(F)c3)NC(=O)Cn3nc(C(F)F)c4c3C(F)(F)[C@@H]3C[C@H]43)c(-c3ccc(Cl)c4c(NS(C)(=O)=O)nn(C)c34)cc21 (single isomer, unassigned) [Example 119] , the value recorded as its CC50 at 4 days is > 10 µM

# compound Cn1nc(NS(C)(=O)=O)c2c(Cl)ccc(-n3c([C@H](Cc4cc(F)cc(F)c4)NC(=O)Cn4nc5c(c4C(F)F)CCC5)nc4ncccc4c3=O)c21 (single isomer, unassigned) [Example 48.2] ; its CC50 at 4 days = > 1 µM

Noted for O=C(Cn1nc(C(F)F)c2c1C(F)(F)[C@@H]1C[C@H]21)N[C@@H](Cc1cc(F)cc(F)c1)c1nc2cn[nH]c2cc1-c1ccc(S(=O)(=O)N2CCOCC2)cc1 [Example 25] : its CC50 at 4 days reads 7.94 µM

Documented CC50 at 4 days of O=C(Cn1nc(C(F)F)c2c1C(F)(F)[C@@H]1C[C@H]21)N[C@@H](Cc1cc(F)cc(F)c1)c1nc2ncccc2c(=O)n1-c1ccc2c(c1)C(=O)NC2 [Example 31] : > 10 µM

The compound identified as Cn1nc(NS(C)(=O)=O)c2c(Cl)ccc(-n3c([C@H](Cc4cc(F)cc(F)c4)NC(=O)Cn4ccc(C5CC5)n4)nc4cc(CS(C)(=O)=O)ccc4c3=O)c21 [Example 205] registered its CC50 at 4 days at > 1 µM

Per the records, this compound ( CC(C)c1ccc(-n2c([C@H](Cc3cc(F)cc(F)c3)NC(=O)Cc3c[nH]c4ccc(O)cc34)nc3cc(C#N)ccc3c2=O)cn1 [Example 162] ) has CC50 at 4 days equal to > 10 µM

Reported CC50 at 4 days for O=C(Cc1c[nH]c2ccc(O)cc12)N[C@@H](Cc1cc(F)cc(F)c1)c1nc2ccccc2nc1-c1ccc2c(c1)C(=O)NC2 [Example 158] was > 10 µM

# CC50 at 4 days (compound: Cn1nc(NS(C)(=O)=O)c2c(Cl)ccc(-n3c([C@H](Cc4cc(F)cc(F)c4)NC(=O)Cn4ccc(C5CC5)n4)nc4cccc(F)c4c3=O)c21 (single isomer, unassigned) [Example 183] ) is > 1 µM
